assay.method.text: Inhibition of malathion-induced apoptosis in goat testicular germ cells assessed as cell survival at 10 uM (malathion treated control = 41 +/- 6.24%)
Assay type: functional
settings: Capra hircus; read-out: Survival
Quick reference: viability at 10 µM of the listed items.
Response body: numeric value in %, unit text excluded.

Some molecules with recorded viability at 10 µM:
In [3]: df
Out[3]:
                                   molecule  unit_annotation  test_value
0  NS(=O)(=O)c1ccc2c(c1)sc1nc(-c3cc4cc(Br)ccc4oc3=O)cn12                %          48
1  NS(=O)(=O)c1ccc2c(c1)sc1nc(-c3ccc(Br)cc3)cn12                %          52
2  NS(=O)(=O)c1ccc2c(c1)sc1nc(-c3ccc(Cl)cc3)cn12                %          56
3  NS(=O)(=O)c1ccc2c(c1)sc1nc(-c3cc4cc(Cl)ccc4oc3=O)cn12                %          61
4  NS(=O)(=O)c1ccc2c(c1)sc1nc(-c3ccc([N+](=O)[O-])cc3)cn12                %          39
5  NS(=O)(=O)c1ccc2c(c1)sc1nc(-c3ccccc3)cn12                %          50

Problem: Let me know recorded viability at 10 µM for CCOC(=O)CC(SP(=S)(OC)OC)C(=O)OCC (stereo not given) [MALATHION] , thanks.
Solution: 41

Problem: Please give measured viability at 10 µM of the following entry: "Cc1ccc(-c2cn3c(n2)sc2cc(S(N)(=O)=O)ccc23)cc1"
Solution: 64

Problem: # return recorded viability at 10 µM for entry "NS(=O)(=O)c1ccc2c(c1)sc1nc(-c3ccc(F)cc3)cn12"
Solution: 43

Problem: Supply viability at 10 µM value. Item: "NS(=O)(=O)c1ccc2c(c1)sc1nc(-c3cc4ccccc4oc3=O)cn12"
Solution: 46
